System: PC-3
assay remarks: Antiproliferative activity against human PC3 cells by CCK8 assay
Format: functional, cell-based
pIC50: −log10 of the molar value.
Below is a list of entries, each paired with its recorded pIC50 value.
observation type: pIC50

C[C@H]1COc2c(N3CCN(C)CC3)c(F)cc3c(=O)c(C(=O)OCc4cn(CCCCCCCC(=O)NO)nn4)cn1c23 :: 4.89 to 6.52
C[C@H]1COc2c(N3CCN(C)CC3)c(F)cc3c(=O)c(C(=O)NCc4cn(CCCCCC(=O)O)nn4)cn1c23 :: 4.78 to 5.11
C[C@H]1COc2c(N3CCN(C)CC3)c(F)cc3c(=O)c(C(=O)OCc4cn(CCCCCCC(=O)O)nn4)cn1c23 :: 4.78 to 5.11
C[C@H]1COc2c(N3CCN(C)CC3)c(F)cc3c(=O)c(C(=O)NCc4cn(CCCCCCCC(=O)NO)nn4)cn1c23 :: 4.89 to 6.52
C[C@H]1COc2c(N3CCN(C)CC3)c(F)cc3c(=O)c(C(=O)OCc4cn(CCCCCCCC(=O)O)nn4)cn1c23 :: 4.78 to 5.11
C[C@H]1COc2c(N3CCN(C)CC3)c(F)cc3c(=O)c(C(=O)OCc4cn(CCCCCC(=O)NO)nn4)cn1c23 :: 4.89 to 6.52
C[C@H]1COc2c(N3CCN(C)CC3)c(F)cc3c(=O)c(C(=O)NCc4cn(CCCCCCC(=O)O)nn4)cn1c23 :: 4.78 to 5.11
C[C@H]1COc2c(N3CCN(C)CC3)c(F)cc3c(=O)c(C(=O)OCc4cn(CCCCCCC(=O)NO)nn4)cn1c23 :: 4.89 to 6.52
C[C@H]1COc2c(N3CCN(C)CC3)c(F)cc3c(=O)c(C(=O)O)cn1c23 :: 4.00 to 4.19
